// melting point lookup, one value per entry

Answered cases to consult:
{"columns": ["compound", "measured_endpoint", "result"],
 "data": [
  ["CCN(C)/C=N/c1cc(OC)c(C(O)(c2ccc(Cl)cc2)C(F)(F)F)cc1C (stereo not shown) [Compound E1.021]", "melting point", "134 to 135 °C"],
  ["CCN(C)/C=N/c1cc(OC)c(C(O)(c2ccc(C)cc2)C(F)(F)F)cc1C (stereo not shown) [Compound E1.020]", "melting point", "112 to 114 °C"],
  ["CCN(C)/C=N/c1cc(OC)c(C(O)(c2cccc(C(F)(F)F)c2)C(F)(F)F)cc1C (stereo not shown) [Compound E1.010]", "melting point", "121 to 123 °C"],
  ["C=CCC(O)(c1cc(C)c(/N=C/N(C)CC)cc1OC)C(F)(F)F (stereo not shown) [Compound E1.071]", "melting point", "123 to 127 °C"],
  ["CCC(O)(c1cc(C)c(/N=C/N(C)C(C)C)cc1OC)C(F)(F)F (stereo not shown) [Compound E1.063]", "melting point", "73 to 76 °C"]
]}

Asked: Would you mind telling me what melting point value was observed for CCN(C)/C=N/c1cc(OC)c(C(O)(c2cccnc2F)C(F)(F)F)cc1C (stereo not shown) [Compound E1.157] ?
Given back: 113 to 115 °C

Asked: Would you mind telling me what melting point value was observed for COc1cc(/N=C/N(C)C(C)C)c(C)cc1C(O)(c1cccc(F)c1)C(F)(F)F (stereo not shown) [Compound E1.152] ?
Given back: 92 to 94 °C

---

// melting point lookup, one value per entry

{"columns": ["molecule", "melting point"],
 "data": [
  ["CCN(C)/C=N/c1cc(OC)c(C(O)(c2cc(F)ccc2C)C(F)(F)F)cc1C (centres unmarked) [Compound E1.145]", "95 to 97 °C"]
]}

Asked: Would you mind telling me what melting point value was observed for COc1cc(/N=C/N2CCCC2)c(C)cc1C(O)(c1ccccc1)C(F)(F)F (centres unmarked) [Compound E1.135] ?
Given back: 157 to 159 °C

Asked: Would you mind telling me what melting point value was observed for CCOC(=O)c1ccc(C(O)(c2cc(C)c(/N=C/N(C)CC)cc2OC)C(F)(F)F)cc1 (centres unmarked) [Compound E1.039] ?
Given back: 118 to 120 °C

Asked: Would you mind telling me what melting point value was observed for CCN(C)/C=N/c1cc(OC)c(C(O)(c2ccccc2C)C(F)(F)F)cc1C (centres unmarked) [Compound E1.024] ?
Given back: 115 to 117 °C

Asked: Would you mind telling me what melting point value was observed for CCN(C)/C=N/c1cc(OC)c(C(O)(c2ccccc2)C(C)(C)C)cc1C (centres unmarked) [Compound E1.125] ?
Given back: 90 to 92 °C

Asked: Would you mind telling me what melting point value was observed for COc1cc(/N=C/N(C)C(C)C)c(C)cc1C(O)(C(C)C)C(F)(F)F (centres unmarked) [Compound E1.067] ?
Given back: 78 to 79 °C

Asked: Would you mind telling me what melting point value was observed for CCN(C)/C=N/c1cc(OC)c(C(O)(c2ccc(F)cc2F)C(F)(F)F)cc1C (centres unmarked) [Compound E1.018] ?
Given back: 113 to 114 °C

Asked: Would you mind telling me what melting point value was observed for CCN(C)/C=N/c1cc(OC)c(C(O)(c2ccccc2)C(C)C)cc1C (centres unmarked) [Compound E1.124] ?
Given back: 82 to 84 °C

---

// melting point lookup, one value per entry

Answered cases to consult:
{"columns": ["compound", "melting point"],
 "data": [
  ["CCN(C)/C=N/c1cc(OC)c(C(O)(c2cc(F)ccc2F)C(F)(F)F)cc1C (centres unmarked) [Compound E1.031]", "137 to 140 °C"],
  ["CCN(C)/C=N/c1cc(OC)c(C(O)(c2cccc(F)c2C)C(F)(F)F)cc1C (centres unmarked) [Compound E1.132]", "107 to 109 °C"],
  ["CCN(C)/C=N/c1cc(OC)c(C(O)(c2cccc(C)c2)C(F)(F)F)cc1C (centres unmarked) [Compound E1.016]", "125 to 127 °C"],
  ["CCN(C)/C=N/c1cc(OC)c(C(O)(c2cccc(F)c2)C(F)(F)F)cc1C (centres unmarked) [Compound E1.029]", "130 to 132 °C"],
  ["CCN(C)/C=N/c1cc(OC)c(C(O)(c2ccccc2)C(F)(F)F)cc1F (centres unmarked) [Compound E1.153]", "144 to 146 °C"],
  ["COc1cc(/N=C/N(C)C(C)C)c(C)cc1C(O)(c1cc(F)ccc1F)C(F)(F)F (centres unmarked) [Compound E1.135]", "112 to 115 °C"]
]}

Asked: Would you mind telling me what melting point value was observed for CCN(C)/C=N/c1cc(OC)c(C(O)(C#Cc2ccccc2)C(F)(F)F)cc1C (centres unmarked) [Compound E1.073] ?
Given back: 88 to 90 °C

Asked: Would you mind telling me what melting point value was observed for CCCCC(O)(c1cc(C)c(/N=C/N2CCCC2)cc1OC)C(F)(F)F (centres unmarked) [Compound E1.134] ?
Given back: 103 to 105 °C

---

// melting point lookup, one value per entry

{"columns": ["compound", "measured_endpoint", "result"],
 "data": [
  ["COc1cc(/N=C/N(C)C(C)C)c(C)cc1[C@](O)(c1ccccc1)C(F)(F)F [Compound E1.027]", "melting point", "110.5 to 111.7 °C"]
]}

Asked: Would you mind telling me what melting point value was observed for CCN(C)/C=N/c1cc(OC(C)C)c(C(O)(c2ccccc2)C(F)(F)F)cc1C (centres unmarked) [Compound E1.115] ?
Given back: 119 to 120 °C

Asked: Would you mind telling me what melting point value was observed for CCN(C)/C=N/c1cc(OC)c(C(O)(c2ccc(SC(F)(F)F)cc2)C(F)(F)F)cc1C (centres unmarked) [Compound E1.037] ?
Given back: 64 to 66 °C

Asked: Would you mind telling me what melting point value was observed for CCN(C)/C=N/c1cc(OC)c(C(O)(c2ccc(SC)cc2)C(F)(F)F)cc1C (centres unmarked) [Compound E1.041] ?
Given back: 89 to 91 °C

Asked: Would you mind telling me what melting point value was observed for COc1cc(/N=C/N(C)C(C)C)c(C)cc1C(O)(c1cccnc1F)C(F)(F)F (centres unmarked) [Compound E1.158] ?
Given back: 120 to 122 °C

Asked: Would you mind telling me what melting point value was observed for COc1cc(/N=C/N(C)C(C)C)c(C)cc1C(O)(c1cc(F)cc(F)c1)C(F)(F)F (centres unmarked) [Compound E1.149] ?
Given back: 110 to 112 °C

Asked: Would you mind telling me what melting point value was observed for CCN(C)/C=N/c1cc(OC)c(C(O)(c2ccc(Br)cc2)C(F)(F)F)cc1C (centres unmarked) [Compound E1.025] ?
Given back: 127 to 129 °C

Asked: Would you mind telling me what melting point value was observed for CCN(C)/C=N/c1cc(OC)c(C(O)(c2ccc(F)cc2)C(F)(F)F)cc1C (centres unmarked) [Compound E1.004] ?
Given back: 102 to 104 °C

Asked: Would you mind telling me what melting point value was observed for COc1cc(/N=C/N(C)C(C)C)c(C)cc1C(O)(c1cccc(F)c1F)C(F)(F)F (centres unmarked) [Compound E1.144] ?
Given back: 97 to 99 °C

Asked: Would you mind telling me what melting point value was observed for COc1cc(/N=C/N(C)C(C)C)c(C)cc1C(O)(c1ccccc1)C(F)(F)F (centres unmarked) [Compound E1.009] ?
Given back: 110 to 111 °C

Asked: Would you mind telling me what melting point value was observed for CCN(C)/C=N/c1cc(OC)c(C(O)(c2ccc(O)cc2)C(F)(F)F)cc1C (centres unmarked) [Compound E1.043] ?
Given back: 240 to 242 °C

Asked: Would you mind telling me what melting point value was observed for CCN(C)/C=N/c1cc(OC)c(C(O)(Cc2cc(C)nc(OC)n2)C(F)(F)F)cc1C (centres unmarked) [Compound E1.094] ?
Given back: 117 to 119 °C

Asked: Would you mind telling me what melting point value was observed for CCN(C)/C=N/c1cc(OC)c(C(O)(c2ccc(OC)nc2)C(F)(F)F)cc1C (centres unmarked) [Compound E1.107] ?
Given back: 100 to 102 °C

Asked: Would you mind telling me what melting point value was observed for COc1cc(/N=C/N(C)C(C)C)c(C)cc1C(O)(c1cccc(F)c1C)C(F)(F)F (centres unmarked) [Compound E1.131] ?
Given back: 127 to 129 °C

---

// melting point lookup, one value per entry

Answered cases to consult:
{"columns": ["molecule", "result"],
 "data": [
  ["CCN(C)/C=N/c1cc(OC)c(C(O)(c2cccc(F)c2F)C(F)(F)F)cc1C (stereo not drawn) [Compound E1.143]", "130 to 132 °C"],
  ["COc1cc(/N=C/N(C)C(C)C)c(C)cc1C(O)(c1c(F)cccc1F)C(F)(F)F (stereo not drawn) [Compound E1.148]", "119 to 121 °C"],
  ["CCN(C)/C=N/c1cc(OC)c(C(O)(c2ccccc2SC)C(F)(F)F)cc1C (stereo not drawn) [Compound E1.032]", "104 to 106 °C"],
  ["COc1cc(/N=C/N(C)C(C)C)c(C)cc1C(O)(c1ccccc1C)C(F)(F)F (stereo not drawn) [Compound E1.148]", "138 to 140 °C"]
]}

Asked: Would you mind telling me what melting point value was observed for COc1cc(/N=C/N(C)C(C)C)c(C)cc1C(O)(c1ccc(F)c(F)c1)C(F)(F)F (stereo not drawn) [Compound E1.127] ?
Given back: 116 to 118 °C

Asked: Would you mind telling me what melting point value was observed for COc1cc(/N=C/N(C)C(C)C)c(C)cc1[C@@](O)(c1ccccc1)C(F)(F)F [Compound E1.026] ?
Given back: 110.5 to 111.7 °C

Asked: Would you mind telling me what melting point value was observed for CCN(C)/C=N/c1cc(OC)c(C(O)(c2ccc(C(F)(F)F)cc2)C(F)(F)F)cc1C (stereo not drawn) [Compound E1.019] ?
Given back: 124 to 126 °C

Asked: Would you mind telling me what melting point value was observed for CCN(C)/C=N/c1cc(OC)c(C(O)(c2ccccc2Cl)C(F)(F)F)cc1C (stereo not drawn) [Compound E1.033] ?
Given back: 97 to 100 °C

Asked: Would you mind telling me what melting point value was observed for CCN(/C=N/c1cc(OC)c(C(O)(C(C)C)C(F)(F)F)cc1C)CC (stereo not drawn) [Compound E1.133] ?
Given back: 60 to 62 °C

Asked: Would you mind telling me what melting point value was observed for CCN(C)/C=N/c1cc(SC)c(C(O)(c2ccccc2)C(F)(F)F)cc1C (stereo not drawn) [Compound E1.113] ?
Given back: 160 to 165 °C

Asked: Would you mind telling me what melting point value was observed for CCN(C)/C=N/c1cc(OC)c(C(O)(c2cccc(Br)c2)C(F)(F)F)cc1C (stereo not drawn) [Compound E1.023] ?
Given back: 98 to 100 °C

Asked: Would you mind telling me what melting point value was observed for CCN(C)/C=N/c1cc(OC)c(C(O)(Cc2ccc(Cl)cc2)C(F)(F)F)cc1C (stereo not drawn) [Compound E1.090] ?
Given back: 63 to 65 °C
